Biological target: T1, recombinant human OX40-his protein (human, UniProt P43489 29-214)
T1 construct: Secreted via the native signal peptide, which lies within residues 1-214; also called Human OX40R-His; histidine tagged human OX40 receptor extracellular domain
T1 sequence: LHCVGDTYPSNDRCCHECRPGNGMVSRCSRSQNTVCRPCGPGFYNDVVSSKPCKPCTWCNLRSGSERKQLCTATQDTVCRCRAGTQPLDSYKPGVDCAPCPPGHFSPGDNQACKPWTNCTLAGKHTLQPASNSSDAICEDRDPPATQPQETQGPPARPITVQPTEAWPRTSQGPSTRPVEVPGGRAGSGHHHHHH
Assay: SPR (BIAcore 2000), antibody captured on Protein A, OX40-his injected

# binder, kon (M⁻¹ s⁻¹)
measured = [
    ("Humanized 7H11 VH1/VL1 IgG1 (antibody, V domains shown, human IgG1, kappa; also called Humanized VH1-VL1 IgG1) VH: QVQLVQSGAEVKKPGASVKVSCKASGYTFTRYYMHWVRQAPGQGLEWMGWIYPGDGSTKYSQKFQGRVTITRDTSASTAYMELSSLRSEDTAVYYCAREYGNYDYWGQGTLVTVSS VL: DIVMTQSPDSLAVSLGERATINCKSSQSLLNSGNQKNYLAWYQQKPGQPPKLLIYGASTRESGVPDRFSGSGSGTDFTLTISSLQAEDVAVYYCQNDHSYPYTFGQGTKLEIKR", 16700),
]
